Data origin: ChEMBL document CHEMBL3124888

target: Human immunodeficiency virus type 1 integrase (Human immunodeficiency virus 1); assay: Inhibition of HIV-1 integrase 3'-end processing activity
REPORTED_METRIC: pIC50
Here pIC50 is given on a logarithmic scale as minus log10 of the concentration in mol/L.

Just so you know, measured pIC50 for COC(=O)[C@H](COC(=O)/C=C/c1ccc(OC(C)=O)c(OC(C)=O)c1)NC(=O)/C=C/c1ccc(OC(C)=O)c(OC(C)=O)c1 came out at 5.52

----------
assay: Inhibition of HIV-1 His6-tagged integrase/Flag-tagged LEDGF-75 (unknown origin) interaction by AlphaScreen assay
REPORTED_METRIC: IC50 (µM)
Value expressed in µM; do not type the unit.

Just so you know, measured IC50 for C=CCN(Cc1ccccc1C(=O)NC(c1ccc(OC)cc1)c1ccc(OC)cc1)Cc1ccc2c(c1C(=O)O)OCO2 came out at 8.1

----------
system: Human immunodeficiency virus 1; experiment: Antiviral activity against HIV-1 harboring integrase E138K mutant relative to wild type HIV1; type: functional
Parameter: fold change (FC). Scope: all listed entries.

CPD_SMILES: CCN1C[C@H](C)n2c(c(O)c3c(=O)n(Cc4ccc(F)c(Cl)c4)nc(C(=O)NC)c32)C1=O
ASSAY_TARGET: Human immunodeficiency virus 1
OBSERVED: 2

The compound Cc1nnc(C(=O)NC(C)(C)c2nc(C(=O)NCc3ccc(F)cc3)c(O)c(=O)n2C)o1 showed fold change (FC) equal to 2

So, COc1cc2c(cc1Cc1cccc(Cl)c1F)c(=O)c(C(=O)O)cn2[C@H](CO)C(C)C ? Its fold change (FC) was 2

Record C[C@@H]1CCO[C@H]2Cn3cc(C(=O)NCc4ccc(F)cc4F)c(=O)c(O)c3C(=O)N12 . Reported fold change (FC): 2

----------
Quick reference: fold change (FC) of the listed items.
system: Human immunodeficiency virus 1; assay: Antiviral activity against HIV-1 harboring integrase T66R mutant relative to wild type HIV1; format: functional

Reference set (3 entries):
MOLECULE: Cc1nnc(C(=O)NC(C)(C)c2nc(C(=O)NCc3ccc(F)cc3)c(O)c(=O)n2C)o1
ASSAY_TARGET: Human immunodeficiency virus 1
REPORTED_METRIC: fold change (FC)
OBSERVED: 2

MOLECULE: COc1cc2c(cc1Cc1cccc(Cl)c1F)c(=O)c(C(=O)O)cn2[C@H](CO)C(C)C
ASSAY_TARGET: Human immunodeficiency virus 1
REPORTED_METRIC: fold change (FC)
OBSERVED: 50

MOLECULE: C[C@@H]1CCO[C@H]2Cn3cc(C(=O)NCc4ccc(F)cc4F)c(=O)c(O)c3C(=O)N12 [DOLUTEGRAVIR]
ASSAY_TARGET: Human immunodeficiency virus 1
REPORTED_METRIC: fold change (FC)
OBSERVED: <2

Now turn to the next molecule.
Human immunodeficiency virus 1 data for CCN1C[C@H](C)n2c(c(O)c3c(=O)n(Cc4ccc(F)c(Cl)c4)nc(C(=O)NC)c32)C1=O ; its fold change (FC): <2

----------
molecular target: Human immunodeficiency virus type 1 integrase (Human immunodeficiency virus 1); test: Inhibition of HIV-1 integrase 3'-end processing activity preincubated for 30 mins followed by 5'-end 32P-labeled linear double-stranded oligonucleotide addition
REPORTED_METRIC: IC50 (µM)
Response body: numeric value in µM, unit text excluded.

IC50 for O=C(c1ccccc1)c1ccc(C(c2c(O)c3ccccc3oc2=O)c2c(O)c3ccccc3oc2=O)cc1 is 27

----------
Collected fold change (FC) values appear next to each entry.
system: Human immunodeficiency virus 1; assay: Antiviral activity against HIV-1 harboring integrase N155H mutant relative to wild type HIV1; type: functional
API doc: respond with a numeric literal and nothing else, no unit.

Lab entry: Human immunodeficiency virus 1 assay, compound COc1cc2c(cc1Cc1cccc(Cl)c1F)c(=O)c(C(=O)O)cn2[C@H](CO)C(C)C , fold change (FC) = 20

fold change (FC) for Human immunodeficiency virus 1 with input CCN1C[C@H](C)n2c(c(O)c3c(=O)n(Cc4ccc(F)c(Cl)c4)nc(C(=O)NC)c32)C1=O equals 2

Lab entry: Human immunodeficiency virus 1 assay, compound Cc1nnc(C(=O)NC(C)(C)c2nc(C(=O)NCc3ccc(F)cc3)c(O)c(=O)n2C)o1 , fold change (FC) = 20

----------
molecular target: Human immunodeficiency virus type 1 integrase (Human immunodeficiency virus 1); test: Inhibition of HIV-1 integrase strand transfer activity preincubated for 30 mins followed by 5'-end 32P-labeled linear double-stranded oligonucleotide addition
REPORTED_METRIC: IC50
State the value with its unit after it.

IC50 recorded for this compound, O=C(c1ccccc1)c1ccc(C(c2c(O)c3ccccc3oc2=O)c2c(O)c3ccccc3oc2=O)cc1 , is 18 µM

----------
test system: Human immunodeficiency virus 1; experiment: Antiviral activity against HIV-1 harboring integrase R263K mutant relative to wild type HIV1; assay type: functional
REPORTED_METRIC: fold change (FC)
API note: the answer field is a bare number with no unit suffix.

CPD_SMILES: COc1cc2c(cc1Cc1cccc(Cl)c1F)c(=O)c(C(=O)O)cn2[C@H](CO)C(C)C
ASSAY_TARGET: Human immunodeficiency virus 1
OBSERVED: 2

Please examine the following record next.
Value (fold change (FC), Human immunodeficiency virus 1) for record C[C@@H]1CCO[C@H]2Cn3cc(C(=O)NCc4ccc(F)cc4F)c(=O)c(O)c3C(=O)N12 = 10

----------
experiment: Inhibition of HIV1 integrase/LEDGF-75 (unknown origin) interaction
REPORTED_METRIC: IC50 (µM)
Enter your answer as a number in µM; do not include the unit.

CPD_SMILES: CCCCc1ncc(/C=C(\Cc2cccs2)C(=O)O)n1Cc1ccc(C(=O)O)cc1
UNIT_OF_MEASUREMENT: µM
IC50: 36.9

CPD_SMILES: CC(C)c1c(C(=O)Nc2ccccc2)c(-c2ccccc2)c(-c2ccc(F)cc2)n1CC[C@@H](O)C[C@@H](O)CC(=O)O
UNIT_OF_MEASUREMENT: µM
IC50: 8.9

The compound listed as C[C@@](Cc1ccc(O)c(O)c1)(NN)C(=O)O shows IC50 equal to 6.54

----------
tested on: Human immunodeficiency virus 1; experiment: Antiviral activity against HIV-1 harboring integrase Y143C mutant relative to wild type HIV1; format: functional
REPORTED_METRIC: fold change (FC)

CPD_SMILES: Cc1nnc(C(=O)NC(C)(C)c2nc(C(=O)NCc3ccc(F)cc3)c(O)c(=O)n2C)o1
fold change (FC): 2
//
CPD_SMILES: C[C@@H]1CCO[C@H]2Cn3cc(C(=O)NCc4ccc(F)cc4F)c(=O)c(O)c3C(=O)N12
fold change (FC): <2
//
CPD_SMILES: CCN1C[C@H](C)n2c(c(O)c3c(=O)n(Cc4ccc(F)c(Cl)c4)nc(C(=O)NC)c32)C1=O
fold change (FC): 2

Turning now to a further record.
response.value for COc1cc2c(cc1Cc1cccc(Cl)c1F)c(=O)c(C(=O)O)cn2[C@H](CO)C(C)C (field: fold change (FC)) = <2

----------
test system: Human immunodeficiency virus 1; assay: Antiviral activity against HIV-1 harboring integrase G140S/Q148K double mutant relative to wild type HIV1; format: functional
Below, each entry is listed with its recorded fold change (FC).

MOLECULE: CCN1C[C@H](C)n2c(c(O)c3c(=O)n(Cc4ccc(F)c(Cl)c4)nc(C(=O)NC)c32)C1=O
OBSERVED: 2
--
MOLECULE: Cc1nnc(C(=O)NC(C)(C)c2nc(C(=O)NCc3ccc(F)cc3)c(O)c(=O)n2C)o1
OBSERVED: >100
--
MOLECULE: C[C@@H]1CCO[C@H]2Cn3cc(C(=O)NCc4ccc(F)cc4F)c(=O)c(O)c3C(=O)N12 [DOLUTEGRAVIR]
OBSERVED: <2

The molecule COc1cc2c(cc1Cc1cccc(Cl)c1F)c(=O)c(C(=O)O)cn2[C@H](CO)C(C)C showed fold change (FC) equal to >100

----------
test system: Human immunodeficiency virus 1; assay: Antiviral activity against HIV-1 NL4-3 infected in human HuT78 cells assessed as inhibition of viral p24 production incubated for 4 days followed by compound washout measured after 48 hrs; assay type: functional, organism-based; conditions: Human immunodeficiency virus 1, NL4-3, HuT78
REPORTED_METRIC: pEC50
Quick note: pEC50 means taking -log10 of the concentration in moles per liter.

The compound listed as C=CCN(Cc1ccccc1C(=O)NC(c1ccc(OC)cc1)c1ccc(OC)cc1)Cc1ccc2c(c1C(=O)O)OCO2 shows pEC50 equal to 4.54

----------
target: Human immunodeficiency virus type 1 integrase (Human immunodeficiency virus 1); experiment: Inhibition of HIV-1 integrase binding to viral DNA by SPR-based competitive assay
REPORTED_METRIC: IC50 (µM)
Field: numeric (µM). Do not append units.

Reported IC50 ( O=C(CN1CCCC1)Nc1ccc(Cc2ccc(NC(=O)CN3CCCC3)cc2)cc1 ) = 7.29
